System: U-2932
measurement.notes: growth inhibition by drug alone (1 - RLU/untreated control) (fraction); higher = stronger inhibition
study.conditions: 10 nM; time (day): 5; 177Lu-lilotomab satetraxetan 0 ug/ml
Structures can show the parent of a compound that is named as a salt.
metric.name: growth inhibition by drug alone
// response body must contain only the number

Fill in reported growth inhibition by drug alone for this entry: Cn1cc(C2=C(c3ccc(Cl)cc3Cl)C(=O)NC2=O)c2ccccc21 0.113

Please supply the value of reported growth inhibition by drug alone for the item CN[C@@H](C)C(=O)N[C@H]1CN(C(=O)CC(C)C)CC[C@H]2CC[C@@H](C(=O)NC(c3ccccc3)c3ccccc3)N2C1=O -0.0459

Look up growth inhibition by drug alone of CC[C@]1(O)C[C@H]2CN(CCc3c([nH]c4ccccc34)[C@@](C(=O)OC)(c3cc4c(cc3OC)N(C=O)[C@H]3[C@@](O)(C(=O)OC)[C@H](OC(C)=O)[C@]5(CC)C=CCN6CC[C@]43[C@@H]65)C2)C1 [Vincristine] and report it. 0.97

Fill in reported growth inhibition by drug alone for this entry: Cc1ccc(C(=O)N(CCCN)[C@@H](c2nc3cc(Cl)ccc3c(=O)n2Cc2ccccc2)C(C)C)cc1 0.379

Determine its reported growth inhibition by drug alone: CNC(=O)c1ccc(N2C(=S)N(c3ccc(C#N)c(C(F)(F)F)c3)C(=O)C2(C)C)cc1F [MDV3100 (Enzalutamide)] -0.126

Report growth inhibition by drug alone, nothing else, for this compound: CNC(=O)c1ccc(C)c(-n2c(C)cc(OCc3ccc(F)cc3F)c(Br)c2=O)c1 -0.0323

Specify reported growth inhibition by drug alone for the compound shown: CC[C@H]1OC(=O)[C@H](C)[C@@H](O[C@H]2C[C@@](C)(OC)[C@@H](O)[C@H](C)O2)[C@H](C)[C@@H](O[C@@H]2O[C@H](C)C[C@H](N(C)C)[C@H]2O)[C@](C)(O)C[C@@H](C)CN(C)[C@H](C)[C@@H](O)[C@]1(C)O [Azithromycin (Zithromax)] 0.0304

Specify reported growth inhibition by drug alone for the compound shown: CNNCc1ccc(C(=O)NC(C)C)cc1 [Procarbazine hydrochloride (Matulane)] -0.0853

Give growth inhibition by drug alone for the following compound: O=C(O)CC[C@H]1CC[C@@](c2cc(F)ccc2F)(S(=O)(=O)c2ccc(Cl)cc2)CC1 -0.0926

Report growth inhibition by drug alone for CC[C@H](Nc1ncnc2[nH]cnc12)c1nc2cccc(F)c2c(=O)n1-c1ccccc1 -0.0211

Please look at this compound and report its growth inhibition by drug alone: CN1CCN(c2ccc3nc(-c4c(N)c5c(F)cccc5[nH]c4=O)[nH]c3c2)CC1 [Dovitinib (TKI-258)] -0.004

Identify the reported growth inhibition by drug alone for the following entry. CC(=O)[C@]1(O)Cc2c(O)c3c(c(O)c2[C@@H](O[C@H]2C[C@H](N)[C@H](O)[C@H](C)O2)C1)C(=O)c1ccccc1C3=O [Idarubicin HCl] 0.684

Item O=c1[nH]nc(Sc2ncc([N+](=O)[O-])s2)n1-c1ccc2c(c1)OCCO2 : provide growth inhibition by drug alone -0.112

Quote growth inhibition by drug alone reported for CC(=O)O[C@@]12CO[C@@H]1C[C@H](O)[C@@]1(C)C(=O)[C@H](O)C3=C(C)[C@@H](OC(=O)[C@H](O)[C@@H](NC(=O)OC(C)(C)C)c4ccccc4)C[C@@](O)([C@@H](OC(=O)c4ccccc4)[C@H]21)C3(C)C [Docetaxel (Taxotere)] please. 0.974

Values compiled from the supplement of paper PMC6897291.
